Tested on: SN12C renal
PROTOCOL SUMMARY: NCI tumour cell line growth inhibition, 48 h
Where a SMILES comes first, the peptide text is derived from it. The star is where a group is joined. Boc = CC(C)(C)OC(=O)*
Documented TGI across a set of compounds
ENDPOINT LABEL: TGI

INSERT INTO results (compound, tested_target, result) VALUES
  ('Cc1ccc(S(=O)(=O)/N=C(\[O-])C2=C(c3ccccc3)NN(C)c3nc4cccc[n+]4nc32)cc1', 'SN12C renal', '> 100 µM'),
  ('COc1ccc(N=C2C(=Nc3ccc(OC)cc3)N(S(=O)(=O)c3ccccc3)C(=S)N2c2ccc(OC)cc2)cc1', 'SN12C renal', '> 100 µM'),
  ('NC(=O)c1cc(Cl)ccc1NC(=O)c1ccccc1-c1ccccc1', 'SN12C renal', '> 100 µM'),
  ('C/C=C1\C(=O)O[C@@H]2C1C[C@@H]1O[C@H]2[C@H](C)CCC/C(C)=C/CC[C@@]1(C)O (stereo not given in full)', 'SN12C renal', '13 µM'),
  ('Cc1ccc(Nc2sc(C)cc2C#N)c([N+](=O)[O-])c1', 'SN12C renal', '> 100 µM'),
  ('C/C(=N\O)c1cccc(Nc2nc3ccccc3c3occc23)c1', 'SN12C renal', '33.6 µM'),
  ('O=c1c(-c2ccccc2Cl)coc2cc(F)ccc12', 'SN12C renal', '> 100 µM'),
  ('Cc1cc(O)c(/C=N/c2nc(-c3cccc([N+](=O)[O-])c3)cs2)c(=O)o1', 'SN12C renal', '> 100 µM'),
  ('CC1(C)N=C(/C=N/O)C(C)(C)N1O', 'SN12C renal', '> 100 µM'),
  ('CC(=O)N1N=C(N)CC1=O', 'SN12C renal', '> 100 µM'),
  ('CCOCC(NC(=O)C(CC(C)C)NC(=O)OC(C)(C)C)C(N)=O (stereo not drawn) (Boc-Leu-Ser(Et)-NH2; configuration not given here)', 'SN12C renal', '> 100 µM'),
  ('O=C(N/N=C\c1ccc([N+](=O)[O-])cc1)Nc1cccc2ccccc12', 'SN12C renal', '> 100 µM'),
  ('Oc1cccc(Cn2c(-c3cccc(O)c3O)nc3ccccc32)c1O', 'SN12C renal', '16.3 µM'),
  ('c1ccc2c(c1)nnn2CNc1ccc(N2CCOCC2)cc1', 'SN12C renal', '> 100 µM'),
  ('O=S(=O)(NCCCNc1cc(-c2cn(-c3ccccc3)nc2-c2cccc(O)c2)ccn1)c1cccc2ccccc12', 'SN12C renal', '> 100 µM'),
  ('C=CCCC(C)N(C(=O)OC(C)(C)C)S(=O)(=O)c1ccc(C)cc1 (stereo not given)', 'SN12C renal', '> 100 µM'),
  ('O=C1/C=C/[C@@H](O)[C@@H]2C[C@@H](O)C[C@H]2/C=C/CCC[C@H](CO)O1', 'SN12C renal', '> 100 µM'),
  ('CC(C)CC1[C@@H](OCc2ccccc2)COS(=O)(=O)N1Cc1ccccc1 (stereo not given in full)', 'SN12C renal', '> 100 µM'),
  ('CC([C@H]1CCC2C3CCC4CC5(CC[C@]4(C)C3CC[C@@]21C)c1ccccc1C(=O)N5C)N(C)C (stereo not given in full)', 'SN12C renal', '> 100 µM'),
  ('COc1ccc(C2SCC(=O)N2NC(=O)C(C)Oc2ccccc2Cl)cc1 (stereo not given)', 'SN12C renal', '> 100 µM');

---

Test system: MCF7 breast
PROTOCOL SUMMARY: NCI tumour cell line growth inhibition, 48 h; in the data active = GI50 below about 0.43 µM; inactive = the rest
Outcomes: TRUE = active, FALSE = inactive

INSERT INTO measurements (query_smiles, assigned_label) VALUES
  ('O=C1C(Cl)=C(Nc2cccc(O)c2)C(=O)N1c1cccc(Cl)c1', 'FALSE'),
  ('O=C1/C(=C/c2ccccc2)CN(CCC(=O)N2C/C(=C\c3ccccc3)C(=O)/C(=C/c3ccccc3)C2)C/C1=C\c1ccccc1', 'TRUE'),
  ('Cc1cccc2c1O/C(=C\c1ncc([N+](=O)[O-])n1C)C2=O', 'TRUE'),
  ('COc1cc(C)[nH]c(=O)c1CN1CCc2c(Cl)cc([C@H](OC)C3COC3)c(Cl)c2C1=O', 'FALSE'),
  ('O=C(O[C@H]1CN[C@H](C#Cc2cc3ncnc(Nc4ccc(OCc5cccc(F)c5)c(Cl)c4)c3s2)C1)N1CCOCC1', 'FALSE'),
  ('COc1ccc(Cl)cc1NC(=O)c1c(NC(=O)C(F)(F)C(F)(F)F)sc2c1CCCCC2', 'FALSE'),
  ('N/C(=N\c1nc2ccccc2s1)NC(=O)Nc1ccccc1Cl', 'TRUE'),
  ('CN(C)Cc1cccc(CN(C)C)[c]1[Sn]([Br])([c]1ccccc1)[c]1ccccc1', 'FALSE'),
  ('COc1cccc(-c2nc(-c3ccc(NC(=O)c4ccccc4)cc3)[nH]c2-c2ccnc(Br)c2)c1', 'FALSE'),
  ('O=C(Nc1ccc(Cl)cc1)c1cc2cc(F)ccc2cc1O', 'FALSE');

---

Test system: RPMI-8226 leukemia
PROTOCOL SUMMARY: NCI tumour cell line growth inhibition, 48 h; in the data active = GI50 below about 0.43 µM; inactive = the rest
Outcome codes: label 1 for active, label 0 for inactive

INSERT INTO results (compound, assigned_label) VALUES
  ('Oc1cccc(Cn2c(-c3cccc(O)c3O)nc3ccccc32)c1O', 'label 0'),
  ('COc1cccc(-c2nc(-c3ccc(NC(=O)c4ccccc4)cc3)[nH]c2-c2ccnc(Br)c2)c1', 'label 1'),
  ('CN(C)CCCN=c1cc2c(=O)n(CCCN(C)C)c(=O)c3c(NCCCN(C)C)cc4c(O)n(CCCN(C)C)c(=O)c1c4c3-2', 'label 0'),
  ('CNC(=O)c1cncc(/C=C/c2c(C)cccc2C)c1', 'label 0'),
  ('COc1ccc(Cl)cc1NC(=O)c1c(NC(=O)C(F)(F)C(F)(F)F)sc2c1CCCCC2', 'label 0'),
  ('O=C1C(Cl)=C(Nc2cccc(O)c2)C(=O)N1c1cccc(Cl)c1', 'label 0'),
  ('NC(=O)c1cc(Cl)ccc1NC(=O)c1ccccc1-c1ccccc1', 'label 0'),
  ('CCn1cc(C(=O)N/N=C/c2cccc(F)c2)c(=O)c2cc(F)c(N3CCNC(C)C3)c(F)c21 (stereo unspecified)', 'label 0'),
  ('O=c1ccccc(-c2ccc(-c3ccco3)cc2)c1O', 'label 0'),
  ('O=C1/C(=C/c2ccccc2Br)COc2ccc(O)c(O)c21', 'label 1'),
  ('C/C=C1\C(=O)O[C@@H]2C1C[C@@H]1O[C@H]2[C@H](C)CCC/C(C)=C/CC[C@@]1(C)O (stereo partly specified)', 'label 0'),
  ('O=C(NC1CCN(Cc2ccccc2)CC1)c1cc(C(=O)NC2CCN(Cc3ccccc3)CC2)cc(C(=O)NC2CCN(Cc3ccccc3)CC2)c1', 'label 0'),
  ('COC(=O)c1cc2c3c(cc(O)c2[nH]1)N(C(=O)C1Cc2cc(OC)c(OC)c(OC)c2N1)CC3CCl (stereo unspecified)', 'label 1'),
  ('COc1cc(C)[nH]c(=O)c1CN1CCc2c(Cl)cc([C@H](OC)C3COC3)c(Cl)c2C1=O', 'label 0'),
  ('Cc1ccc2c(N/N=C\c3ccco3)cc(C)nc2n1', 'label 0'),
  ('O=C(O[C@H]1CN[C@H](C#Cc2cc3ncnc(Nc4ccc(OCc5cccc(F)c5)c(Cl)c4)c3s2)C1)N1CCOCC1', 'label 0'),
  ('COc1cc([C@@H]2c3cc4c(cc3[C@H](OC(C)=O)[C@H]3COC(=O)[C@H]23)OCO4)cc(OC)c1OC', 'label 1'),
  ('Cc1cccc2c1O/C(=C\c1ncc([N+](=O)[O-])n1C)C2=O', 'label 0'),
  ('O=C1c2cccc3cc([N+](=O)[O-])cc(c23)C(=O)N1CCN1CCCC1', 'label 1'),
  ('CC1(C)CCC2(C(=O)O)CC[C@]3(C)C(=CCC4C5(C)CC[C@H](OC6OC(C(=O)O)C(O)C(OC7OC(CO)C(O)C(O)C7O)C6OC6OC(CO)C(O)C(O)C6O)C(C)(C)C5CCC43C)C2C1 (stereo partly specified)', 'label 0'),
  ('N#C/C(=C/C=C/c1ccccc1)S(=O)c1ccccc1 (stereo unspecified)', 'label 1');

---

Tested on: SK-OV-3 ovarian
PROTOCOL SUMMARY: NCI tumour cell line growth inhibition, 48 h
Where a SMILES comes first, the peptide text is derived from it. The star is where a group is joined. Boc = CC(C)(C)OC(=O)*
Parameter TGI: see the listing below.
ENDPOINT LABEL: TGI

INSERT INTO results (compound, endpoint_label, result) VALUES
  ('CCOC(=O)C(C)(C)/C=C\C(Cl)=C(Cl)Cl', 'TGI', '> 100 µM'),
  ('O=C1OC[C@@H]2Cc3c([nH]c4ccccc34)[C@@H](c3cc(O)c(O)c(O)c3)N12', 'TGI', '> 100 µM'),
  ('O[C@H]1[C@H](O)[C@H](O)CN2CCC[C@@H](O)[C@H]12', 'TGI', '> 100 µM'),
  ('CCCC1C(=O)C(CC)Cc2c(OC)ccc(OC)c21 (stereo not drawn)', 'TGI', '> 100 µM'),
  ('N=c1oc2ccc(Cl)cc2cc1C(=O)NCc1ccccc1', 'TGI', '> 100 µM'),
  ('O=C(N/N=C\c1ccc([N+](=O)[O-])cc1)c1ccccc1Nc1ccccc1C(=O)N/N=C/c1ccc([N+](=O)[O-])cc1', 'TGI', '> 100 µM'),
  ('COc1cc2c(cc1OC)C(Cc1ccccc1CCCl)=NCC2', 'TGI', '> 100 µM'),
  ('C[C@@H](NC1CCC[C@@H]1O)c1ccccc1 (stereo partly drawn)', 'TGI', '> 100 µM'),
  ('COc1ccc(N=C2C(=Nc3ccc(OC)cc3)N(S(=O)(=O)c3ccccc3)C(=S)N2c2ccc(OC)cc2)cc1', 'TGI', '> 100 µM'),
  ('CCCCNC(=O)Oc1ccc2c(=O)c3sc4c(=O)c5ccccc5c(=O)c4c3c(=O)c2c1', 'TGI', '2.8 µM'),
  ('O=C(O)CN(c1ccccc1)S(=O)(=O)c1ccc(Cl)cc1', 'TGI', '> 100 µM'),
  ('CCN(CC)CCSc1nc2c(c(=N)n1-c1ccccc1)c(=S)n(-c1ccccc1)c(=S)n2-c1ccccc1', 'TGI', '15.5 µM'),
  ('CCCC#CC(O)(C(=O)OC1CCN(C)CC1)C1CCCCC1 (stereo not drawn)', 'TGI', '> 100 µM'),
  ('CC(C)NC(=O)OCc1c(COC(=O)NC(C)C)c(-c2ccc[n+](COC(=O)C3CC3)c2)n2c1CCC2', 'TGI', '> 100 µM'),
  ('O=c1[nH]c2ccc(CC(=S)N3CCN(c4ccccc4)CC3)cc2o1', 'TGI', '> 100 µM'),
  ('COc1ccc2c(c1)CCCN1CCc3cc(OC)c(OC)cc3C21 (stereo not drawn)', 'TGI', '> 100 µM'),
  ('O=C1CC2C(=O)C1C(C(=O)O)C2C(=O)O (stereo not drawn)', 'TGI', '> 100 µM'),
  ('COc1cc(/C=C2\CN(S(=O)(=O)c3ccc(C)cc3)C/C(=C\c3cc(CN4CCCCC4)c(O)c(OC)c3)C2=O)cc(CN2CCCCC2)c1O', 'TGI', '3.6 µM'),
  ('CC1(C)C(=O)C2(OS(=O)(=O)C(F)(F)F)CCC1C2 (stereo not drawn)', 'TGI', '> 100 µM'),
  ('O=C(COc1ccc(Cl)cc1)N1N=C(c2ccc([N+](=O)[O-])o2)CC1(O)c1ccccc1 (stereo not drawn)', 'TGI', '47.3 µM'),
  ('CNC(=O)c1cncc(/C=C/c2c(C)cccc2C)c1', 'TGI', '> 25 µM'),
  ('CN(C)CCCN=c1cc2c(=O)n(CCCN(C)C)c(=O)c3c(NCCCN(C)C)cc4c(O)n(CCCN(C)C)c(=O)c1c4c3-2', 'TGI', '6.93 µM'),
  ('CCOCC(NC(=O)C(CC(C)C)NC(=O)OC(C)(C)C)C(N)=O (stereo not drawn) (Boc-Leu-Ser(Et)-NH2; configuration not given here)', 'TGI', '> 100 µM'),
  ('Cc1ccc2c(N/N=C\c3ccco3)cc(C)nc2n1', 'TGI', '22.7 µM'),
  ('O=C1CCC2=C3C4CCCCC4C(=O)C4CCCC(OC2C1)C34 (stereo not drawn)', 'TGI', '> 100 µM'),
  ('CCN(CC)Cc1cc(Nc2ccnc3cc(Cl)ccc23)cc(-c2ccc(Cl)cc2)c1O', 'TGI', '> 100 µM'),
  ('CC1=C(/C=C/C2=CC(=C\C(=O)O)/CC(C3=C(C)CCCC3(C)C)C2)C(C)(C)CCC1 (stereo not drawn)', 'TGI', '27.7 µM'),
  ('CCC1CCCCN1C(=S)N/N=C(\C)c1ccccn1 (stereo not drawn)', 'TGI', '2.46 µM'),
  ('O=C1/C=C/[C@@H](O)[C@@H]2C[C@@H](O)C[C@H]2/C=C/CCC[C@H](CO)O1', 'TGI', '> 100 µM'),
  ('COC1(OC)C2(Cl)C(Cl)=C(Cl)C1(Cl)C1COCC12 (stereo not drawn)', 'TGI', '> 100 µM'),
  ('O=C1C=C(N2CC2)C(=O)C=C1N1CC1', 'TGI', '2.19 µM'),
  ('CC(=O)NC1C(OCc2ccccc2)OC(COC(=O)CCCCCNc2ccc([N+](=O)[O-])c3[nH]c4ccc(O)cc4c(=O)c23)C(O)C1OC(C)C(=O)N[C@@H](C)C(=O)N[C@H](CCC(=O)OCc1ccccc1)C(N)=O (stereo partly drawn)', 'TGI', '10.7 µM'),
  ('NC(=O)c1cc(Cl)ccc1NC(=O)c1ccccc1-c1ccccc1', 'TGI', '11.3 µM');
